protocol: self-splicing fitness, log relative to wild type (ln ratio); higher = more splicing; Tetrahymena group I intron in knt gene, E. coli kanamycin selection, DiMSum; sequences stand for … in CUCUCU…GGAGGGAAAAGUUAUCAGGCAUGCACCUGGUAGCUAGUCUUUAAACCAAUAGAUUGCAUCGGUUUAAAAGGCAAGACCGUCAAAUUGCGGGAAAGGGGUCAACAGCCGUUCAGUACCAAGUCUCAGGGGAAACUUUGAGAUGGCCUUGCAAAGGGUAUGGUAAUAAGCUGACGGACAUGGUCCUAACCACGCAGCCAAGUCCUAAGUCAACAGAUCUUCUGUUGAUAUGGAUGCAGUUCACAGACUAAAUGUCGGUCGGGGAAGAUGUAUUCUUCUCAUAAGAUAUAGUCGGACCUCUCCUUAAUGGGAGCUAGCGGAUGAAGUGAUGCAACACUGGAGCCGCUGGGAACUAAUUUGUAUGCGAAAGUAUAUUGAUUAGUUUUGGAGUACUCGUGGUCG;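 note: selection with 25 µg/mL kanamycin versus none on LB agar overnight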
condition_info: 37 °C
parameter: self-splicing fitness (ln)
Just the number.

For orientation, consider the following solved cases.
AGGUAGCAAUAUUACGGACG : -0.546
GCCAAGCAAUAUUACGGUGA : -0.493
AGGCAGCAAUAUUACGUAGA : -0.171
GGUGAGCAAUAUUACGGACG : 0.806
CUAAAGCAAUAUUACGGAAG : 0.0341

Request: Would you kindly share the measured self-splicing fitness (ln) for GAGAAGCAAUAUUACGUGUA ?
Response: -1.41

Request: Would you mind telling me what self-splicing fitness (ln) value was observed for CUUCAGCAAUAUUACGCGCA ?
Response: 0.383

Request: Please give the measured self-splicing fitness (ln) for this sequence: UGGUAGCAAUAUUACGCCAU
Response: -1.09

Request: Can you look up the measured self-splicing fitness (ln) of ACACAGCAAUAUUACGAGGC for me?
Response: -3.41

Request: Please look up its self-splicing fitness (ln): GAUCAGCAAUAUUACGCCAU
Response: -1.33

Request: Consider the sequence ACACAGCAAUAUUACGCCUA and give its measured self-splicing fitness (ln).
Response: -0.392

Request: # query: self-splicing fitness (ln) of entry CAAGAGCAAUAUUACGGAAG
Response: -1.31

Request: // query self-splicing fitness (ln) value for entry UCAUAGCAAUAUUACGUCUU
Response: -3.53

Request: Endpoint output: self-splicing fitness (ln) of AGAGAGCAAUAUUACGCUUG . Value?
Response: -2.46

Request: Entry under review: GGGUAGCAAUAUUACGCCGU . Reported self-splicing fitness (ln)?
Response: 0.576

###

Recorded measurements of self-splicing fitness (ln), one per entry
protocol: self-splicing fitness, log relative to wild type (ln ratio); higher = more splicing; Tetrahymena group I intron in knt gene, E. coli kanamycin selection, DiMSum; sequences stand for … in CUCUCU…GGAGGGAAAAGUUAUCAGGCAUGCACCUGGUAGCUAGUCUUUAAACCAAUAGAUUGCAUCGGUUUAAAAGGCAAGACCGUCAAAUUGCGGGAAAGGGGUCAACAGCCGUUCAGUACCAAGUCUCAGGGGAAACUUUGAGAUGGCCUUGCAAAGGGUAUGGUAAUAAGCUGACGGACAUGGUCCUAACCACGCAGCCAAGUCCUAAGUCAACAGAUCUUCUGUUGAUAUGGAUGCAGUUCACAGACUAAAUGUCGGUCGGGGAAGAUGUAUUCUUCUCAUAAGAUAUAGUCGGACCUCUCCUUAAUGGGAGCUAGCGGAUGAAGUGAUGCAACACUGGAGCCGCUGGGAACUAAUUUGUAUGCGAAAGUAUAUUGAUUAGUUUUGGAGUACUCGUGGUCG
condition_info: 30 °C
Give the figure only, with no unit attached.

UCAGAGCAAUAUUACGAUGU : -1.87
GGGAAGCAAUAUUACGAGGG : -4.09
UUUCAGCAAUAUUACGUGUC : -3.73
CAACAGCAAUAUUACGAUAA : -2.08
GGAAAGCAAUAUUACGGAUA : -2.59
CGCCAGCAAUAUUACGUCUC : -4.51
GAGUAGCAAUAUUACGUGCA : -1.35
CGUAAGCAAUAUUACGAAAG : -1.98
UAACAGCAAUAUUACGCGAU : -3.97
CCUAAGCAAUAUUACGUAUU : -4.79

Request: For GCCGAGCAAUAUUACGAGAG , what is its reported self-splicing fitness (ln)?
Response: -3.14

Request: Reported self-splicing fitness (ln), sequence AUCAAGCAAUAUUACGGCAG : ____
Response: -1.58

Request: // returns reported self-splicing fitness (ln) for input UACUAGCAAUAUUACGCAUG
Response: -1.72

Request: What measured self-splicing fitness (ln) goes with GUCUAGCAAUAUUACGGUGC ?
Response: 0.0594

Request: Recorded self-splicing fitness (ln) of AGCAAGCAAUAUUACGACCC , please.
Response: -0.234

Request: # input sequence: UACUAGCAAUAUUACGGCAC ; wanted: its self-splicing fitness (ln)
Response: -2.77

These measurements were taken from the supplement of paper PMC7877785.
